The reported measurements were obtained from patent US6900354B2.

Target chain: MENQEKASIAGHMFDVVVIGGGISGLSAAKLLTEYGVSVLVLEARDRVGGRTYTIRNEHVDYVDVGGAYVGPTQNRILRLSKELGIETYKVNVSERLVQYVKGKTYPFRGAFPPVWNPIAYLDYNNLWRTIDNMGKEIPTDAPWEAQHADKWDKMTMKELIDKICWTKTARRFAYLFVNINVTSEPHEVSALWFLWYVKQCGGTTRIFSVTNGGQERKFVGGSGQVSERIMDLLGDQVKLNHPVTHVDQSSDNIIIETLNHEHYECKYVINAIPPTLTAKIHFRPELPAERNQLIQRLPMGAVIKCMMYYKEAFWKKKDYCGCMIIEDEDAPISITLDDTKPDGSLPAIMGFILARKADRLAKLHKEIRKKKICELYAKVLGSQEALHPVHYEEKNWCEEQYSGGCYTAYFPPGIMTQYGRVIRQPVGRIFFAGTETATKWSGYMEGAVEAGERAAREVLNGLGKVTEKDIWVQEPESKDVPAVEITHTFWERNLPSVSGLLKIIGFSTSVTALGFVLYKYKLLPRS
Measure name: IC50

# return recorded IC50 for entry CNC(=O)C(C)Cc1ccc(OCc2cccc(F)c2)cc1 (stereo not shown) [Example 4]
> 10 µM
